Where do the numbers come from? From ChEMBL document CHEMBL4840311.

PROTOCOL: AUC (0 to t) in Wistar rat at 2.5 mg/kg, im measured for 48 hrs by HPLC method
Assay type: ADME, organism-based
Set-up: dose 2.5 mg/kg, time 48 hrs
APPLIED CONDITIONS: in vivo
MEASURED PROPERTY: AUC(0-t) at 48 h (ng·h/mL)
Answers are plain numbers, in ng·h/mL.

Q. Suppose we examine the compound Cc1c(C(=O)OCc2ccccc2)[n+]([O-])c2cc(F)c(-n3cncn3)cc2[n+]1[O-] ; what AUC(0-t) at 48 h value has been reported?
A. 10100

----------
PROTOCOL: MRT (0 to infinity) in Wistar rat at 2.5 mg/kg, im by HPLC method
Format: ADME, organism-based
APPLIED CONDITIONS: in vivo
MEASURED PROPERTY: MRT inf (h)
Numbers only, in h.

Q. Suppose we examine the compound Cc1c(C(=O)OCc2ccccc2)[n+]([O-])c2cc(F)c(-n3cncn3)cc2[n+]1[O-] ; what MRT inf value has been reported?
A. 7.38
